# melting point per record follows
Number only, in °C; omit the unit.

query: So what does the record say about melting point for `NCc1cccc(CN2C(=O)C3=C(CCN(Cc4cc(F)cc(F)c4)C3)N3CCN=C23)c1` ?
result: 129.5

query: So what does the record say about melting point for `O=C1C2=C(CCN(Cc3cc(F)cc(F)c3)C2)N2CCN=C2N1Cc1cccc(Cl)c1` ?
result: 204.8

query: So what does the record say about melting point for `O=C1C2=C(CCN(Cc3cc(F)cc(F)c3)C2)N2CCN=C2N1Cc1ccc(Br)cc1` ?
result: 173.5

query: So what does the record say about melting point for `[N-]=[N+]=Nc1cccc(CN2CCC3=C(C2)C(=O)N(Cc2ccc(C(F)(F)F)cc2)C2=NCCN23)c1` ?
result: 128.8

====

# Tested on: SCC-25 (tongue, squamous cell carcinoma) cells
# testDescription: Cell viability assay, CellTiter-Glo (Example 21)
# Format: cell-based, human
# conditionsUsed: 300 nM, 72 h treatment
# SCC-25 (tongue, squamous cell carcinoma) cell viability (% of control) per record follows

Solved cases below.
| compound | result |
| --- | --- |
| [N-]=[N+]=Nc1cccc(CN2CCC3=C(C2)C(=O)N(Cc2ccc(Cl)cc2)C2=NCCN23)c1 [I/133] | 40.9 ± 3.7 % of control |
| O=C1C2=C(CCN(Cc3cc(F)cc(F)c3)C2)N2CCN=C2N1Cc1ccc(C(F)(F)F)cc1 [I/30] | 36.3 ± 2.6 % of control |
| [N-]=[N+]=Nc1ccc(CN2C(=O)C3=C(CCN(Cc4cc(F)cc(F)c4)C3)N3CCN=C23)cc1 [I/107] | 42.4 ± 5.7 % of control |
| O=C1C2=C(CCN(Cc3ccccc3)C2)N2CCN=C2N1Cc1ccc(C(F)(F)F)cc1 [I/1, reference compound] | 37.6 ± 4.3 % of control |

Alright, here's another compound for you.
query: API: value(readout=SCC-25 (tongue, squamous cell carcinoma) cell viability (% of control), system=SCC-25 (tongue, squamous cell carcinoma) cells) for record O=C1C2=C(CCN(Cc3cc(F)cc(F)c3)C2)N2CCN=C2N1Cc1ccc(Cl)cc1 [I/124]
result: 42.3 ± 5.2 % of control

====

# System: SCC-25 (tongue, squamous cell carcinoma) cells
# testDescription: Cell viability assay, CellTiter-Glo (Example 21)
# Format: cell-based, human
# conditionsUsed: 300 nM, 72 h treatment
endpoint: SCC-25 (tongue, squamous cell carcinoma) cell viability (% of control)

| compound | result |
| --- | --- |
| O=C1C2=C(CCN(Cc3cccc(F)c3)C2)N2CCN=C2N1Cc1ccc(F)cc1 [I/6, reference compound] | 41.5 ± 3.1 % of control |
| [N-]=[N+]=Nc1cccc(CN2CCC3=C(C2)C(=O)N(Cc2ccc(C(F)(F)F)cc2)C2=NCCN23)c1 [I/111] | 36.4 ± 0.9 % of control |
| O=C1C2=C(CCN(Cc3cccc(F)c3)C2)N2CCN=C2N1Cc1ccc(C(F)(F)F)cc1 [I/3, reference compound] | 33.1 ± 1.7 % of control |

query: So what does the record say about SCC-25 (tongue, squamous cell carcinoma) cell viability (% of control) for O=C1C2=C(CCN(Cc3cc(F)cc(F)c3)C2)N2CCN=C2N1Cc1ccc(F)cc1 [I/7] ?
result: 39.7 ± 2.7 % of control
